test system: ROS; assay: ROS release from f-MLP-stimulated neutrophils, luminol chemiluminescence; format: cell-based, human; conditions: 20 μM, % of stimulated control
ROS release Mean(%) by entry:
observedProperty: ROS release Mean(%)

[[record]]
molecule = "O=C(OC1COC(=O)c2cc(O)c(O)c(O)c2-c2c(cc(O)c(O)c2O)C(=O)OC1C1OC(=O)c2cc(O)c(O)c(O)c2-c2c(O)c(O)c(O)c3c2C(=O)OC1C3O)c1cc(O)c(O)c(O)c1Oc1cc2c(c(O)c1O)-c1c(cc(O)c(O)c1O)C(=O)OCC1OC(=O)c3cc(O)c(O)c(O)c3-c3c(O)c(O)c(O)c4c3C(=O)OC(C1OC2=O)C1OC(=O)c2c-4c(O)c(O)c(O)c2C1O (stereo not drawn) [SC, salicarinin C]"
result = "18,92%"

[[record]]
molecule = "O=C(OC1COC(=O)c2cc(O)c(O)c(O)c2-c2c(cc(O)c(O)c2O)C(=O)OC1C1OC(=O)c2cc(O)c(O)c(O)c2-c2c(O)c(O)c(O)c3c2C(=O)OC1C3O)c1cc(O)c(O)c(O)c1Oc1cc2c(c(O)c1O)-c1c(cc(O)c(O)c1O)C(=O)OCC1OC(=O)c3cc(O)c(O)c(O)c3-c3c(O)c(O)c(O)c4c3C(=O)OC(C1OC2=O)C1OC(=O)c2c-4c(O)c(O)c(O)c2C1O (stereo not drawn) [SA, salicarinin A]"
result = "19,49%"

[[record]]
molecule = "O=C1OC[C@H]2OC(=O)c3cc(O)c(O)c(O)c3-c3c(O)c(O)c(O)c4c3C(=O)O[C@H]([C@H]3OC(=O)c5c-4c(O)c(O)c(O)c5[C@H]3O)[C@@H]2OC(=O)c2cc(O)c(O)c(O)c2-c2c1cc(O)c(O)c2O [C, castalagin]"
result = "29,55%"


meta.source: paper PMC4544630
